Test system: Wolbachia pipientis
Assay: Anti-Wolbachia Cell-Based Screen
Format: functional
Set-up: scale not given: in the data most compounds retested in dose-response had high values
Conditions: 5 µM
Screen size: about 48,000 compounds; about 13,000 (27%) showed an effect of 50% or more. This is one part of the list.
So basically, if Percent Effect comes in under 10% it's T, and if it's 10% or more it's F.

| Compound | Answer label |
| --- | --- |
| Cc1ccccc1-n1cnnc1SCCOCC1CCCO1 (stereo unspecified) | T |
| Cc1[nH]nc(CCC(=O)N2CCc3c(nc[nH]c3=O)C2)c1C | F |
| COc1cccc(OCCNCc2c(C)nn(C)c2N(C)C)c1 | T |
| Cc1nn(C)c(N(C)C)c1CNC(C)COc1ccccc1F (stereo unspecified) | F |
| Cc1nn(C)c(N(C)C)c1CNCC(O)COc1ccccc1.Cl (stereo unspecified) | T |

The measured values listed here are drawn from ChEMBL document CHEMBL3988442.
